Value source: patent US20190084939A1

biological target: Human FXR full length (Homo sapiens); construct: Human FXR full length and RXR full length was obtained from Ronald Evans' laboratory; expressed in transfected cells; host or cells: CV-1 cells; assay: FXR activity screen, luciferase reporter in transfected CV-1 cells; assay type: cell-based; details: first round; CV-1 cells, 24 hours; read-out: 1st RND EC50
# note: exactly 3000 nM is not below, so it is false (0); use true (1) for EC50 strictly under it

1) [2H]C(c1ccc(-c2ccc3c(cnn3C)c2)cc1Cl)N(C(=O)[C@@H]1C[C@@H]2CC[C@H]1C2)c1cc(F)cc(/C=C/C(=O)OC)c1 (some centres unmarked)	true (1)
2) [2H]C(c1ccc(-c2ccc(N(C)C)cc2)cc1F)N(C(=O)C1CCCCC1)c1cncc(/C=C/C(=O)OC)c1 (centres unmarked)	true (1)
3) [2H]C(c1ccc(-c2ccc3c(cnn3C)c2)cc1Cl)N(C(=O)[C@@H]1C[C@@H]2CC[C@H]1C2)c1cncc(/C=C/C(=O)OC)c1 (some centres unmarked)	true (1)

Please turn your attention to the following entry.
Task item: Does the reported EC50 of the following compound sit strictly below 3000 nM? COC(=O)/C=C/c1cncc(N(Cc2ccc(-c3ccc4c(cnn4C)c3)cc2)C(=O)c2ccccc2)c1
Reply: false (0)

----------
target: Human FXR full length (Homo sapiens, UniProt Q96RI1); construct: Human FXR full length and RXR full length was obtained from Ronald Evans' laboratory; expressed in transfected cells; host or cells: CV-1 cells; test: FXR activity screen, luciferase reporter in transfected CV-1 cells; assay type: cell-based; conditions: second round; CV-1 cells, 24 hours; read-out: 2nd RND EC50
Sequence (Q96RI1 1-476 isoform Q96RI1-1): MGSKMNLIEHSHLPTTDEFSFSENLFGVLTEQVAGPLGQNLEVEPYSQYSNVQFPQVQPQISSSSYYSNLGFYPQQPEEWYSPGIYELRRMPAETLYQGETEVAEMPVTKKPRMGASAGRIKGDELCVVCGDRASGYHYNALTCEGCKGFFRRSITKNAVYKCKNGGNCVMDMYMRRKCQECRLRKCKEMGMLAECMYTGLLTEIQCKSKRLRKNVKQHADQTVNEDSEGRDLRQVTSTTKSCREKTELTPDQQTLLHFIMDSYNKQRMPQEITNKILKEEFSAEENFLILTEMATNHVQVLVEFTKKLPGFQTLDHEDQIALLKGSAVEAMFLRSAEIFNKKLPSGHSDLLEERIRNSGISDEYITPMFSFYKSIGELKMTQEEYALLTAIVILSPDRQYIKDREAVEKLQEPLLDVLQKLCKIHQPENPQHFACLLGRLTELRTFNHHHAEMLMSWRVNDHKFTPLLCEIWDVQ
Sequence (P19793 whole entry partner): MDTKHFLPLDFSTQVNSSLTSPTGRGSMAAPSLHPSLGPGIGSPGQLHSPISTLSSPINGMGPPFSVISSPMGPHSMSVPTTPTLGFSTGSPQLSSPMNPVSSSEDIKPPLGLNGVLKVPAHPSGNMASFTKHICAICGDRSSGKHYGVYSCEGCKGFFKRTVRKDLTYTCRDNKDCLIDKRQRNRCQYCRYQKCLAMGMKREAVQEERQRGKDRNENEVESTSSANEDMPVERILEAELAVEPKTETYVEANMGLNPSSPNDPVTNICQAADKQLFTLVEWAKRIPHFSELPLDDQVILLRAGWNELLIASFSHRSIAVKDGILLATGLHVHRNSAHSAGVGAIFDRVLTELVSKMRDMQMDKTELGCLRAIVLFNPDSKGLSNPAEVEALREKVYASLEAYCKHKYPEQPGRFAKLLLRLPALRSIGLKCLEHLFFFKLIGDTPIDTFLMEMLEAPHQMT
# note: exactly 2000 nM is not below, so it is Not met; use Met for EC50 strictly under it

Worked cases, answers included:
1) [2H]C(c1ccc(-c2ccc(N(C)C)cc2)cc1Cl)N(C(=O)c1ccccc1)c1cc(F)cc(/C=C/C(=O)OC)c1 (centres unmarked) [NSSK00050]	Not met
2) [2H]C(c1ccc(-c2ccc(N(C)C)cc2)cc1Cl)N(C(=O)C1CCCCC1)c1cncc(/C=C/C(=O)OC)c1 (centres unmarked) [NSSK00032]	Not met
3) [2H]C(c1ccc(-c2ccc3c(cnn3C)c2)cc1Cl)N(C(=O)[C@@H]1C[C@@H]2CC[C@H]1C2)c1cncc(/C=C/C(=O)OC)c1 (some centres unmarked) [NSSK00073]	Met
4) COC(=O)/C=C/c1cncc(N(Cc2cccc3cc4cnn(C)c4cc23)C(=O)C2CCCCC2)c1 [NSSK00005]	Not met

Task item: Does the reported EC50 of the following compound sit strictly below 2000 nM? COC(=O)/C=C/c1cccc(N(Cc2ccc(-c3ccc4c(cnn4C)c3)cc2)C(=O)C2CCN(C)CC2)c1 [NSSK00035]
Reply: Not met

Task item: Does the reported EC50 of the following compound sit strictly below 2000 nM? [2H]C(c1ccc(-c2ccc(N(C)C)cc2)cc1F)N(C(=O)c1ccccc1)c1cc(F)cc(/C=C/C(=O)OC)c1 (centres unmarked) [NSSK00108]
Reply: Met

Task item: Does the reported EC50 of the following compound sit strictly below 2000 nM? COC(=O)/C=C/c1cc(F)cc(N(Cc2ccc(-c3ccc4c(cnn4C)c3)cc2)C(=O)c2ccccc2)c1 [NSSK00058]
Reply: Met

Task item: Does the reported EC50 of the following compound sit strictly below 2000 nM? COC(=O)/C=C/c1cccc(N(Cc2ccc(-c3ccc4c(cnn4C)c3)cc2)C(=O)C2CCCCC2)c1 [NSSK00004]
Reply: Met

Task item: Does the reported EC50 of the following compound sit strictly below 2000 nM? [2H]C(c1ccc(-c2ccc3c(cnn3C)c2)cc1Cl)N(C(=O)c1ccccc1)c1cncc(/C=C/C(=O)OC)c1 (centres unmarked) [NSSK00101]
Reply: Not met

Task item: Does the reported EC50 of the following compound sit strictly below 2000 nM? COC(=O)/C=C/c1cncc(N(Cc2cccc3cc4cnn(C)c4c(Cl)c23)C(=O)C2CCCCC2)c1 [NSSK00009]
Reply: Not met

Task item: Does the reported EC50 of the following compound sit strictly below 2000 nM? [2H]C(c1ccc(-c2ccc(N(C)C)cc2)cc1)N(C(=O)C1CCCCC1)c1cc(F)cc(/C=C/C(=O)OC)c1 (centres unmarked) [NSSK00025]
Reply: Met
